Field: self-cleavage kobs at 40 uM GlcN6P. Provide a value for each of the variants that follow.
B1: glmS ribozyme (parent)
chain: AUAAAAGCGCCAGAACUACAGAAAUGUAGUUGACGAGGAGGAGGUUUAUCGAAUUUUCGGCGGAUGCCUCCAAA

Variants of: B1
assay.name: self-cleavage kobs at 40 uM GlcN6P; higher = faster cleavage; RNA array
test.context: with glucosamine-6-phosphate
Fewer inactive variants are shown than the library holds.

Guide cases for self-cleavage kobs at 40 uM GlcN6P, answers given:
> print(dat)
        residue.change  recorded.value
1   A6G G32A U49G U55A     < 1e-05 s⁻¹
2       A33C A64C C68U     < 1e-05 s⁻¹
3  A12C G38C G44A A64G     < 1e-05 s⁻¹

For each of the items listed, what is its self-cleavage kobs at 40 uM GlcN6P?
1. A12U U45G
2. G38U C58U
3. G37A A53G
4. G35C G63A
5. A14U G60U
6. C8A C10U C34G
7. C11U U55G
8. G38C G63U

0.000515 s⁻¹
< 1e-05 s⁻¹
0.000101 s⁻¹
< 1e-05 s⁻¹
< 1e-05 s⁻¹
< 1e-05 s⁻¹
5.89e-05 s⁻¹
< 1e-05 s⁻¹

Please state, for each entry, its recorded self-cleavage kobs at 40 uM GlcN6P.
1. A14C A36G
2. A14G C67G
3. C11G G29C U31G G37A C68G
4. A33U A53U C61A U69A
5. A14G U47G
6. C8G G60U A64U

1: < 1e-05 s⁻¹; 2: 9.34e-05 s⁻¹; 3: < 1e-05 s⁻¹; 4: < 1e-05 s⁻¹; 5: 0.00069 s⁻¹; 6: < 1e-05 s⁻¹
